Ref: patent US20260116910A1

# Target system: human FXR (NR1H4) (Homo sapiens)
# Sequence (Q96RI1 1-476 isoform Q96RI1-1): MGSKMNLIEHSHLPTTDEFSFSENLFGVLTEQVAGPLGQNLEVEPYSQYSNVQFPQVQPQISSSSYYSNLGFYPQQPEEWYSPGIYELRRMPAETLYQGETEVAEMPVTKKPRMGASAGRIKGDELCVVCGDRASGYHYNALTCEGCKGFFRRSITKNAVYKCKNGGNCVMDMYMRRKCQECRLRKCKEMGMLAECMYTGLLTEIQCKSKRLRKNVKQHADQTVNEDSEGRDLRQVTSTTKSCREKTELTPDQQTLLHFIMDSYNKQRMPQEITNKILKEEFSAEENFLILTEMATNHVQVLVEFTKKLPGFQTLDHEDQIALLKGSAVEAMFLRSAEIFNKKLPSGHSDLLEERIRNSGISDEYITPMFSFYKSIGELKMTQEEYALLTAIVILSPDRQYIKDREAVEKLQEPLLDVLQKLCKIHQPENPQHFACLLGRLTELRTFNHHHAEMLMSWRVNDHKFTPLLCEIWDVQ
# Assay protocol: Human FXR (NR1H4) agonist assessment, FXRE-NanoLuc reporter in HEK293T cells
# Type: cell-based
# Condition label: FXR activation, HEK293T FXRE-NanoLuc reporter, 24 hr; read-out: EC50

# Molecule, EC50
measured = [
    ("CC[C@H]1[C@@H](O)[C@H]2[C@@H]3CC[C@](C)([C@H](C)CCNC(=O)NS(=O)(=O)C[C@]45CCC(CC4=O)C5(C)C)[C@H]3CC[C@@H]2[C@@]2(C)CC[C@H](F)C[C@@H]12", "< 1 µM"),
    ("C[C@H](CCC(=O)O)[C@H]1CC[C@H]2[C@@H]3CC[C@@H]4CCCC[C@]4(C)[C@H]3CC[C@]12C", "1 to 10 µM"),
    ("CC[C@H]1[C@@H](O)[C@@H]2[C@H](CC[C@]3(C)[C@@H]([C@H](C)CCNC(=O)NS(=O)(=O)c4ccc(C)cc4)CC[C@@H]23)[C@@]2(C)CCCC[C@@H]12", "< 1 µM"),
    ("CC[C@H]1[C@@H](O)[C@@H]2[C@H](CC[C@]3(C)[C@@H]([C@H](C)CCc4nnc(C(C)C)s4)CC[C@@H]23)[C@@]2(C)CCCC[C@@H]12", "1 to 10 µM"),
    ("[2H]C1CC[C@@]2(C)[C@@H](C1)[C@@H](CC)[C@@H](O)[C@@H]1[C@@H]2CC[C@]2(C)[C@@H]([C@H](C)CCC(=O)O)CC[C@@H]12 (some centres unmarked)", "< 1 µM"),
    ("CC[C@H]1[C@@H](O)[C@@H]2[C@H](CC[C@]3(C)[C@@H]([C@H](C)CCC(=O)Nc4nnn[nH]4)CC[C@@H]23)[C@@]2(C)CCCC[C@@H]12", "1 to 10 µM"),
    ("CC[C@H]1[C@@H](O)[C@@H]2[C@H](CC[C@]3(C)[C@@H]([C@H](C)CCNC(=S)NS(=O)(=O)c4cccs4)CC[C@@H]23)[C@@]2(C)CCC(F)(F)C[C@@H]12", "< 1 µM"),
    ("CCOC(=O)C(=O)NCC[C@@H](C)[C@H]1CC[C@H]2[C@@H]3[C@H](O)[C@H](CC)[C@@H]4CCCC[C@]4(C)[C@H]3CC[C@]12C", "< 1 µM"),
    ("CC[C@H]1[C@@H](O)[C@@H]2[C@H](CC[C@]3(C)[C@@H]([C@H](C)CCNC(=O)NS(=O)(=O)c4ccc(C(C)(C)C(=O)OC)cc4)CC[C@@H]23)[C@@]2(C)CCCC[C@@H]12", "< 1 µM"),
    ("COC(=O)CC[C@@H](C)[C@H]1CC[C@H]2[C@@H]3/C(=N\\OC(C)(C)C(=O)O)C[C@@H]4C[C@H](OC(C)=O)CC[C@]4(C)[C@H]3CC[C@]12C", "> 10 µM"),
    ("CC[C@H]1[C@@H](O)[C@@H]2[C@H](CC[C@]3(C)[C@@H]([C@H](C)CCc4nnc(NS(=O)(=O)c5ccc6c(c5)OCO6)[nH]4)CC[C@@H]23)[C@@]2(C)CCCC[C@@H]12", "1 to 10 µM"),
]

---

# Target system: MRGPRX4 (Homo sapiens, UniProt Q96LA9)
# Sequence (Q96LA9 whole entry): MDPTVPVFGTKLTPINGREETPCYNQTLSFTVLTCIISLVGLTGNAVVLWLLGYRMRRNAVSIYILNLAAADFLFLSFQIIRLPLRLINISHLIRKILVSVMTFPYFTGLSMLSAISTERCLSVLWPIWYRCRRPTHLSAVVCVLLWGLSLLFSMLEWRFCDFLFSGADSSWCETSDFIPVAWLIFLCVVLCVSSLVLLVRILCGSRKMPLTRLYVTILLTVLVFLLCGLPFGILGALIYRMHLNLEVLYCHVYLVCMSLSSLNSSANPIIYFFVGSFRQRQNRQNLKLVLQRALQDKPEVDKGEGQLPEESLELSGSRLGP
# Assay protocol: MRGPRX4 activation, Fluo-8 Ca2+ FLIPR assay in HEK293T cells stably expressing MRGPRX4
# Format: cell-based
# Design: key: fluorescence change dF/F0
# Condition label: E3-9, Conc. (Log[M]) −6.9
# Method: In some embodiments, cells were cultured in poly-D-Lys coated blacked walled, clear-bottom 96-well microplates. […] The concentration of solution should be determined according to the protocol settings and experimental needs (e.g., Log[M]=−4, −5, −6, −7, −8, and −9). […] A fluorescent signal baseline was measured using FLIPR®Tetra for 30 s. […] The fluorescent signal would be measured for another 150 s. Activity of each compound was calculated by the fluorescence change (dF/F0). […]

# Smiles code, MRGPRX4 activation, Average
rows = [
    ("CC[C@H]1[C@@H](O)[C@@H]2[C@H](CC[C@]3(C)[C@@H]([C@H](C)CCNC(=O)NS(=O)(=O)c4cc(F)ccc4F)CC[C@@H]23)[C@@]2(C)CCC(F)(F)C[C@@H]12", 0.021),
    ("CC[C@H]1[C@@H](O)[C@@H]2[C@H](CC[C@]3(C)[C@@H]([C@H](C)CCC(=O)O)CC[C@@H]23)[C@@]2(C)CCC(F)(F)C[C@@H]12", 0.016),
    ("CC[C@H]1[C@@H](O)[C@@H]2[C@H](CC[C@]3(C)[C@@H]([C@H](C)CCNC(=O)NS(=O)(=O)c4cccs4)CC[C@@H]23)[C@@]2(C)CCCC[C@@H]12", 0.008),
    ("CC[C@H]1[C@@H](O)[C@@H]2[C@H](CC[C@]3(C)[C@@H]([C@H](C)CCNC(=O)NS(=O)(=O)c4ccc(C(C)(C)CF)cc4)CC[C@@H]23)[C@@]2(C)CC[C@H](F)C[C@@H]12", 0.016),
]
